# System: RPMI-8226 leukemia
# Procedure Details: NCI-60 one-dose screen, 48 h (100 = growth as untreated, 0 = no growth, -100 = all killed)
# Particulars: 10 µM unless noted
About 83,000 compounds went through this panel and 20% of them were active in at least one assay; those are over-represented in the sample as a whole.
Mark MET for reported growth of 80% or greater; mark NOT MET for anything smaller.

>  <Molecule>
CCO/C=N/C1=C(C#N)C(c2ccc(Cl)cc2)c2sc3c(CC)cccc3c2O1 (stereo not drawn)

>  <Discrete Label>
NOT MET

$$$$
>  <Molecule>
Cc1ccc(-c2nnc(SCc3ccc(O)c4ncccc34)o2)cc1

>  <Discrete Label>
NOT MET

$$$$
>  <Molecule>
Cc1ccc(NC(=O)c2ccc(CN3CCN(C)CC3)cc2)cc1Oc1ccc(-c2[nH]nc3ncnc(N)c23)cc1

>  <Discrete Label>
NOT MET

$$$$
>  <Molecule>
Cc1ccc(S(=O)(=O)NCCNc2nc(Nc3ccc(N4CCN(C)CC4)cc3)nc3ccsc23)cc1

>  <Discrete Label>
MET

$$$$
>  <Molecule>
NC(N)=Nc1ccc(Oc2cccc(NC(N)=Nc3ccc(I)cc3F)c2)cn1

>  <Discrete Label>
NOT MET

$$$$
>  <Molecule>
O=S(=O)(NCCCNc1nccc(-c2[nH]c(-c3ccccc3)nc2-c2ccc(Cl)c(O)c2)n1)c1cccc(F)c1

>  <Discrete Label>
NOT MET

$$$$
>  <Molecule>
CCN1CCN(Cc2cn(-c3ccc(S(N)(=O)=O)cc3)nn2)CC1

>  <Discrete Label>
MET

$$$$
>  <Molecule>
COc1cc(OC)c(S(N)(=O)=O)cc1C(=O)/C=C/c1ccc(C)cc1

>  <Discrete Label>
NOT MET

$$$$
>  <Molecule>
NC(=O)c1cccc(-n2ccc3cc(NC(=O)Nc4ccc(N5CCOCC5)c(C(F)(F)F)c4)ccc32)n1

>  <Discrete Label>
NOT MET

$$$$
>  <Molecule>
CC1(COc2ccc3ncc(C#Cc4cncc(C(=O)Nc5cccc(C(F)(F)F)c5)c4)n3n2)COC1

>  <Discrete Label>
MET

$$$$
>  <Molecule>
CC1(C)[C@@H](O)CC[C@]2(C)[C@H]3CC[C@@H]4[C@H]5[C@H](C(=O)/C=C\c6ccccn6)CC[C@]5(O)CC[C@@]4(C)[C@]3(C)CC[C@@H]12

>  <Discrete Label>
NOT MET

$$$$
>  <Molecule>
CN(Cc1ccccc1)S(=O)(=O)/N=C1\NC(=O)NC1=C(Cl)Cl

>  <Discrete Label>
NOT MET

$$$$
>  <Molecule>
Cn1ccnc1C(=O)/C=C/c1ccc(CNC(=O)c2ccc(Cl)cc2)cc1

>  <Discrete Label>
NOT MET

$$$$
>  <Molecule>
COc1cc(/C=C/C(=O)c2ccc(NC(=O)CSc3nnc(-c4ccc(-c5nc6ccc(Cl)cc6[nH]5)cc4)o3)cc2)cc(OC)c1OC

>  <Discrete Label>
MET

$$$$
>  <Molecule>
NS(=O)(=O)c1ccc(-n2cc(-c3cccc(NC(=O)c4ccc(N5CCOCC5)c(C(F)(F)F)c4)c3)nn2)cc1

>  <Discrete Label>
NOT MET

$$$$
>  <Molecule>
NS(=O)(=O)c1ccc(Nc2nc(N/N=C/c3ccc(Cl)cc3)nc(Nc3ccccc3)n2)cc1

>  <Discrete Label>
NOT MET

$$$$
>  <Molecule>
COc1ccc(C(=O)c2c(N)c(C#N)cn2-c2ccccc2OC)cc1

>  <Discrete Label>
NOT MET

$$$$

----------
# Tested on: DU-145 prostate
# Procedure Details: NCI-60 one-dose screen, 48 h (100 = growth as untreated, 0 = no growth, -100 = all killed)
# Particulars: 10 µM unless noted
This is part of a sample that, as a whole, favours compounds with a hit. Of some 83,000 tested, about 20% had one in any assay.
Recorded Endpoint: growth (%)

>  <Molecule>
CCOC(=O)C(=O)CC(=O)N1C(=S)NC(=O)C1CC(C)C (stereo not drawn)

>  <Tested Target>
DU-145 prostate

>  <Recorded Endpoint>
growth

>  <Recorded Result>
108

$$$$
>  <Molecule>
C#CCOC(=O)[C@@H]1CCCN1CC#C

>  <Tested Target>
DU-145 prostate

>  <Recorded Endpoint>
growth

>  <Recorded Result>
92

$$$$
>  <Molecule>
O=C1Nc2ccccc2/C1=C/c1ccc(COCC2CO2)n1-c1ccc(O)cc1 (stereo not drawn)

>  <Tested Target>
DU-145 prostate

>  <Recorded Endpoint>
growth

>  <Recorded Result>
111

$$$$
>  <Molecule>
CCOc1cccc(-c2nc3sccn3c2-c2ccnc(S(C)(=O)=O)n2)c1

>  <Tested Target>
DU-145 prostate

>  <Recorded Endpoint>
growth

>  <Recorded Result>
0.125

$$$$
>  <Molecule>
CC(c1ccccc1)N1CSc2nc3ncncc3n2C1 (stereo not drawn)

>  <Tested Target>
DU-145 prostate

>  <Recorded Endpoint>
growth

>  <Recorded Result>
33.3

$$$$
>  <Molecule>
C=C(C)[C@@H]1CC[C@]2(COCCCNCCC#N)CC[C@]3(C)[C@H](CC[C@@H]4[C@@]5(C)CC[C@H](OCCCNCCC#N)C(C)(C)[C@@H]5CC[C@]43C)[C@@H]12

>  <Tested Target>
DU-145 prostate

>  <Recorded Endpoint>
growth

>  <Recorded Result>
65

$$$$
>  <Molecule>
COc1ccccc1N1CCN(C2=CC(=O)C(C)=C(C)C2=O)CC1

>  <Tested Target>
DU-145 prostate

>  <Recorded Endpoint>
growth

>  <Recorded Result>
105

$$$$
>  <Molecule>
Cc1ccc(CSc2nc(-c3ccc(Cl)cc3)c(C#N)c(N3CCNCC3)n2)cc1

>  <Tested Target>
DU-145 prostate

>  <Recorded Endpoint>
growth

>  <Recorded Result>
82.6

$$$$
>  <Molecule>
CC(C)(C)c1ccc(C(=O)Nc2sc3c(c2C(N)=O)CC/C(=N\O)C3)cc1

>  <Tested Target>
DU-145 prostate

>  <Recorded Endpoint>
growth

>  <Recorded Result>
42.2

$$$$
>  <Molecule>
CCc1cccc(NC(=O)CNc2cc(S(=O)(=O)N(C)C)cc(C)c2C)c1

>  <Tested Target>
DU-145 prostate

>  <Recorded Endpoint>
growth

>  <Recorded Result>
80.3

$$$$
>  <Molecule>
O=C(CCn1c[n+](CC(=O)c2ccc(F)cc2)c2ccccc21)Nc1cccc2cccnc12

>  <Tested Target>
DU-145 prostate

>  <Recorded Endpoint>
growth

>  <Recorded Result>
96.6

$$$$
>  <Molecule>
O=C(c1ccc(O)cc1)[C@@H]1CN[C@@]2(C(=O)Nc3ccccc32)[C@H]1c1ccc(F)cc1

>  <Tested Target>
DU-145 prostate

>  <Recorded Endpoint>
growth

>  <Recorded Result>
111

$$$$
>  <Molecule>
CC1(C)CC[C@]2(C(=O)N3CCOCC3)CC[C@]3(C)C(=CC[C@@H]4[C@@]5(C)C/C(=C/c6ccco6)C(=O)C(C)(C)[C@@H]5CC[C@]43C)[C@@H]2C1

>  <Tested Target>
DU-145 prostate

>  <Recorded Endpoint>
growth

>  <Recorded Result>
73.2

$$$$
>  <Molecule>
CC1=NC2=NC(=O)/C(=C3/N=C(C)C=C(c4ccccc4)N3N)NN2C(c2ccccc2)=C1

>  <Tested Target>
DU-145 prostate

>  <Recorded Endpoint>
growth

>  <Recorded Result>
105

$$$$
>  <Molecule>
Cc1cccc2c3c(sc12)C(c1ccc(Cl)cc1)c1c(nc(CC(=O)Nc2ccccc2)[nH]c1=O)O3 (stereo not drawn)

>  <Tested Target>
DU-145 prostate

>  <Recorded Endpoint>
growth

>  <Recorded Result>
93

$$$$
>  <Molecule>
CCCn1cnc2c(c1=N)C(c1ccc(Cl)cc1)c1sc3c(C)cccc3c1O2 (stereo not drawn)

>  <Tested Target>
DU-145 prostate

>  <Recorded Endpoint>
growth

>  <Recorded Result>
19.7

$$$$
>  <Molecule>
C=C1CC[C@@H]2[C@]3(C)COC(c4ccccc4)O[C@@H]3CC[C@@]2(C)[C@@H]1C/C=C1/C(=O)OC[C@H]1O (stereo partly drawn)

>  <Tested Target>
DU-145 prostate

>  <Recorded Endpoint>
growth

>  <Recorded Result>
92.1

$$$$
>  <Molecule>
NS(=O)(=O)c1ccc(Nc2nc(N/N=C/c3ccccn3)nc(Nc3ccccc3)n2)cc1

>  <Tested Target>
DU-145 prostate

>  <Recorded Endpoint>
growth

>  <Recorded Result>
4.85

$$$$

----------
# Tested on: OVCAR-3 ovarian
# Procedure Details: NCI-60 one-dose screen, 48 h (100 = growth as untreated, 0 = no growth, -100 = all killed)
# Particulars: 10 µM unless noted
This is part of a sample that, as a whole, favours compounds with a hit. Of some 83,000 tested, about 20% had one in any assay.
Mark condition met for reported growth of 70% or greater; mark condition not met for anything smaller.

>  <Compound>
O=C(O)c1ccc(-n2cc(CNc3cc(F)c(F)c(F)c3)c(-c3cccc(F)c3)n2)cc1

>  <Tested Target>
OVCAR-3 ovarian

>  <Discrete Label>
condition met

$$$$
>  <Compound>
O=C(Cn1cc[n+](CC(=O)c2ccc(-c3ccccc3)cc2)c1)Nc1cccc2cccnc12

>  <Tested Target>
OVCAR-3 ovarian

>  <Discrete Label>
condition not met

$$$$
>  <Compound>
C=CCOc1cccc(/C=C2\SC(=S)N(C3CC(=O)N(c4ccc(Br)cc4)C3=O)C2=O)c1 (stereo not drawn)

>  <Tested Target>
OVCAR-3 ovarian

>  <Discrete Label>
condition met

$$$$
>  <Compound>
COc1c(N2CC3CCCNC3C2)c(F)cc2c(=O)c(C(=O)N/N=C/c3ccc(Br)cc3)cn(C3CC3)c12 (stereo not drawn)

>  <Tested Target>
OVCAR-3 ovarian

>  <Discrete Label>
condition met

$$$$
>  <Compound>
CC(c1ccccc1)N1CSc2nc3ncncc3n2C1 (stereo not drawn)

>  <Tested Target>
OVCAR-3 ovarian

>  <Discrete Label>
condition not met

$$$$
>  <Compound>
C=CCn1c(SCC(=O)Nc2ccc(C(=O)/C=C/c3ccc(Cl)cc3)cc2)nnc1-c1c[nH]c2ccccc12

>  <Tested Target>
OVCAR-3 ovarian

>  <Discrete Label>
condition met

$$$$
>  <Compound>
N#Cc1cccc(NC(=O)c2cc(-c3ccc(F)cc3F)ccc2O)c1

>  <Tested Target>
OVCAR-3 ovarian

>  <Discrete Label>
condition not met

$$$$
>  <Compound>
C#C[C@]1(O)CC[C@H]2[C@@H]3CC=C4c5sc(-c6ccc(C)cc6)nc5CC[C@]4(C)[C@H]3CC[C@@]21C

>  <Tested Target>
OVCAR-3 ovarian

>  <Discrete Label>
condition not met

$$$$
>  <Compound>
C#CCn1cccc1CNc1ccc(OC)cc1

>  <Tested Target>
OVCAR-3 ovarian

>  <Discrete Label>
condition not met

$$$$
>  <Compound>
NC(=O)c1cccc(C#CCNC[C@H]2C[C@@H](n3ccc4c(Cl)ncnc43)[C@H](O)[C@@H]2O)c1

>  <Tested Target>
OVCAR-3 ovarian

>  <Discrete Label>
condition met

$$$$
>  <Compound>
COC[C@]12CCC(C)(C)C[C@H]1C1=CC[C@@H]3[C@@]4(C)CCCNC(C)(C)[C@@H]4CC[C@@]3(C)[C@]1(C)CC2

>  <Tested Target>
OVCAR-3 ovarian

>  <Discrete Label>
condition not met

$$$$
>  <Compound>
CC(=O)N(C)C1CCc2c(sc(NC(=O)c3ccc(C(C)(C)C)cc3)c2C(N)=O)C1 (stereo not drawn)

>  <Tested Target>
OVCAR-3 ovarian

>  <Discrete Label>
condition met

$$$$
>  <Compound>
O=C(Nc1ccc(Br)cc1)Nc1nc2ccc([N+](=O)[O-])cc2s1

>  <Tested Target>
OVCAR-3 ovarian

>  <Discrete Label>
condition not met

$$$$
>  <Compound>
C=CCn1c(SCC(=O)Nc2ccc(C(=O)/C=C/c3ccc(C)cc3)cc2)nnc1-c1c[nH]c2ccccc12

>  <Tested Target>
OVCAR-3 ovarian

>  <Discrete Label>
condition met

$$$$
>  <Compound>
COc1cc2nc(Cl)nc(Nc3cccc(C4=Nc5c(N)nc(N)nc5NC(c5ccc(Br)cc5)C4)c3)c2cc1OC (stereo not drawn)

>  <Tested Target>
OVCAR-3 ovarian

>  <Discrete Label>
condition met

$$$$
>  <Compound>
CN1CCN(Cc2ccc(NC(=O)c3cncc(C#Cc4cnc5ccc(OCC(C)(C)O)nn45)c3)cc2C(F)(F)F)CC1

>  <Tested Target>
OVCAR-3 ovarian

>  <Discrete Label>
condition not met

$$$$
>  <Compound>
COc1cc(-c2ccc3ncnc(NCc4ccccc4)c3c2)cnc1OC

>  <Tested Target>
OVCAR-3 ovarian

>  <Discrete Label>
condition not met

$$$$
>  <Compound>
O=C(CSc1nc2ccccc2c(=O)n1-c1ccccc1)Nc1ccc(-c2nc3ccc([N+](=O)[O-])cc3[nH]2)cc1

>  <Tested Target>
OVCAR-3 ovarian

>  <Discrete Label>
condition not met

$$$$
